FYI, the data here is from ChEMBL document CHEMBL4706685.

- measurement notes: Terminal half life in human at 8 to 24 mg
- Format: ADME
- run parameters: dose 8-24 mg, read-out: beta t1/2 (converted)
observable: half-life (h)
Field: numeric (h). Do not append units.

### Prompt Param item = CC[C@H](C)C(=O)N1CCC(NC(=O)Nc2ccc(OC(F)(F)F)c(F)c2)CC1 ; retrieve measured half-life.
### Response 42

---

- Test system: CYP3A4
- measurement notes: Induction of CYP3A4 mRNA expression in human hepatocytes up to 30 uM relative to positive control
- Format: ADME, cell-based, Hepatocyte
- run parameters: read-out: Activity
observable: Emax

### Prompt Form field - read-out: Emax; system: CYP3A4; submitted item: CC[C@H](C)C(=O)N1CCC(NC(=O)Nc2ccc(OC(F)(F)F)c(F)c2)CC1
### Response < 20%
